- target.under.test: T1, RSV F subtype A, furin-cleaved ectodomain stabilized in the prefusion conformation (DS-Cav1) (Respiratory syncytial virus subtype A, UniProt P03420 26-524)
- T1 construct: extracellular domain; Trimeric soluble antigen; also called Prefusion subtype A
- protocol.notes: BLI, IgG on AHQ sensor, 100 nM antigen
pKd: −log10 of the molar value.
Recorded pKd values for a group of binders are listed next.

{"columns": ["binder", "pKd"],
 "data": [
  ["ADI-18971 (antibody, V domains shown, full-length IgG from yeast; also called Antibody Number 319; Ab # 319) VH: EVQLVESGGGLVQRGGSLRLSCAASGFTFSGNAMSWVRQAPGKGLEWVASIGESATSAYYADSVKGRFTISRDDSKNTLYLQMNSLRPEDTAVYFCAKDRVGWFGEFDAFDFWGQGTMVTVSS VL: SYELTQPPSVSVAPGKTATISCGGNNIGGHKVHWYQQRPGQAPVLVIYYDNVRPSGIPERFSGSNSGNTATLTISRVEAGDEADFYCQVWDSRSEHVIFGGGTKVTVL", 9.80],
  ["ADI-18915 (antibody, V domains shown, full-length IgG from yeast; also called Antibody Number 269; Ab # 269) VH: QVQLVQSGGGLVKPGGSLRLSCAASGFTFSKAWMNWVRQAPGKGLEWVGRIRSKTDGGTADYAAPVKGRFTMSRDDSKNTLYLQMNSLKTEDTAVYYCATDSRRLYDSRGFYSSAFDVWGQGTTVTVSS VL: QSVLTQPPSVSGAPGQRVTISCTGSSSNIGAGYDVHWYQHLPGTAPKVLIYGNNNRPSGVPDRFSGSKSGTSASLAITGLQAEDEADYYCQSYDDSLTGWVFGGGTKVTVL", 7.55],
  ["ADI-18928 (antibody, V domains shown, full-length IgG from yeast) VH: QVQLVQSGAEVKRPGSSVRVSCKASGGTFRKYAISWVRQARGQGLEWMGGIIPMSGPPSYAQKFQGRVTITADESTSTVYMELSSLRFEDTAVYFCARDIEWFVLMDPITSYYPMDVWGQGTTVTVSS VL: QSVVTQEPSLTVSPGGTVTLTCGSSTGGVTSGHHTYWFQQKPGQAPRTLIYDTTNTHSWTPARFAGSLLGGKAALTLSGAQPEDEADYYCLLSYSGARPVFGGGTKLTVL", 9.35]
]}
